Reference for the values: paper PMC9611977

- TARGET_OF_ASSAY: rat ASIC3 (Rattus norvegicus, UniProt O35240)
- Construct: expressed in transfected cells; host or cells: Xenopus laevis oocytes (cRNA injection)
- Sequence (O35240 whole entry): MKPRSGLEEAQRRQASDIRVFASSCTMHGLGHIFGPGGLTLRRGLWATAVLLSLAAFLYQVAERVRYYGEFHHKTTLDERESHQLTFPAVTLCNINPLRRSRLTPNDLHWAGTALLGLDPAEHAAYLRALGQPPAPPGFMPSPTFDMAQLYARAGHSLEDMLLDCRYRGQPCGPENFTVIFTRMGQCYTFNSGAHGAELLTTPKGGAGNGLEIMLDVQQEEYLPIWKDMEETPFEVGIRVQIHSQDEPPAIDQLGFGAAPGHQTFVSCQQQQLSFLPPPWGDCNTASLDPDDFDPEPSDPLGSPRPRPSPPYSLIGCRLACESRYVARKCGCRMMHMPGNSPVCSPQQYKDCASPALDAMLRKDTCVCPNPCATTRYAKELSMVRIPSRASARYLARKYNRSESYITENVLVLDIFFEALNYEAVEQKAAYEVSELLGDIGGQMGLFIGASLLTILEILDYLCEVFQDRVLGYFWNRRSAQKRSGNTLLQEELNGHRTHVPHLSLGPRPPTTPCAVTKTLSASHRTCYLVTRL
- EXPERIMENTAL_DETAILS: two-electrode voltage clamp on rASIC3 expressed in X. laevis oocytes
- Assay type: cell-based
Bridge positions count the residues as written; N and C are the ends. Ends that are not written are not given here.
PROPERTY_LABEL: pIC50
One number for each entry, as −log10 of the molar value.

Query block: Any idea what pIC50 was measured for GTPCKCLGYTGVYWFMITRCPNGHGYNLSCPYFLGVCCVKK (disulfide 4-37, 6-30, 20-38) [Hmg 1b-5] ?
Result block: 4.86
